assayed-system: MDM2 (Homo sapiens, UniProt Q00987)
Sequence (Q00987 whole entry): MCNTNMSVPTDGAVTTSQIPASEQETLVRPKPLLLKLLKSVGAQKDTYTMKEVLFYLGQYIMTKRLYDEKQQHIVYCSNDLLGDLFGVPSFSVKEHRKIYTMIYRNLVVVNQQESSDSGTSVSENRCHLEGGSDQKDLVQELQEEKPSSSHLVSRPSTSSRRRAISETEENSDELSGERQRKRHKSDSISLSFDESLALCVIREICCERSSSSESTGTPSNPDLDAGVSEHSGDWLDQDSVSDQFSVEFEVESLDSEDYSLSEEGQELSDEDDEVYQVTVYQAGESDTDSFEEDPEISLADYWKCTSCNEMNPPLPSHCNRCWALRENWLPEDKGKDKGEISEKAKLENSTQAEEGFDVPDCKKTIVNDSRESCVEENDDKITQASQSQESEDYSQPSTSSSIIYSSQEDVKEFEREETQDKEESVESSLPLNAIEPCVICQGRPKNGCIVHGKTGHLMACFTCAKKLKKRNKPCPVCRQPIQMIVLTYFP
assay-text: MDM2 binding screen of Libraries 3 and 4: displacement of fluorescent probe F-M8 at 750 nM macrocycle
measurement-setup: Panel b, Library 3: 63 scaffolds combinatorially acylated with 15 carboxylic acids at 30 picomole scale; displacement of fluorescent peptide probe; macrocycle 750 nM
Experimental: The cyclic peptide scaffolds required for Libraries 3 and 4 were synthesized as described for those used in Library 2. Due to the presence of many N-methylated amino acids which are more difficult to couple, 200 mM HOAt was applied together with HATU. The scaffolds were diluted to 2 mM in DMSO, and 15 nL were transferred using acoustic dispensing, followed by 15 nL DMSO containing carboxylic acids (40 mM, 20 equiv.), HBTU (40 mM) and DABCO (40 mM). […]
Reported fraction of fluorescent probe displaced values follow for various molecules
The answer should be a number; do not append a unit.

O=C1CN(CCNC(=O)c2ccc3ccccc3c2)C(=O)[C@H]2CCCN(C2)C(=O)CCSSCCNC(=O)[C@H](Cc2ccc3ccccc3c2)N1 = 0.011
O=C(/C=C/c1ccc(Cl)cc1)NC[C@@H]1NC(=O)[C@H]2CCCN(C2)C(=O)CCSSCCNC(=O)[C@H](Cc2ccc3ccccc3c2)NC1=O = 0.021
O=C(/C=C/c1ccc(Cl)cc1)NC[C@@H]1NC(=O)[C@H]2CCCN(C2)C(=O)CCSSCCNC(=O)[C@H](Cc2cccc3ccccc23)NC1=O = 0.041
O=C(/C=C/c1ccncc1)NC[C@H]1NC(=O)[C@H]2CCCN(C2)C(=O)CCSSCCNC(=O)[C@H](Cc2c[nH]c3ccccc23)NC1=O = -0.002
CN1C(=O)CN(CCNC(=O)/C=C/c2ccc3ccccc3c2)C(=O)[C@@H]2CN(CCO2)C(=O)CCSSCCNC(=O)[C@@H]1Cc1c[nH]c2ccccc12 = 0.015

For the molecule CN1C(=O)[C@H](CNC(=O)/C=C/c2ccc(OCc3ccccc3)cc2)NC(=O)[C@H]2CCCN(C2)C(=O)CCSSCCNC(=O)[C@@H]1Cc1c[nH]c2ccccc12 , give its reported fraction of fluorescent probe displaced. 0.015

For the molecule CC(Oc1cccc(Cl)c1)C(=O)NCCN1CC(=O)N[C@@H](Cc2ccc3ccccc3c2)C(=O)NCCSSCCC(=O)NCC2(CC2)C1=O (some centres unmarked) , give its reported fraction of fluorescent probe displaced. 0.008

---

Reported fraction fluorescent probe displaced, Replicate values follow for various molecules
assayed-system: MDM2 (Homo sapiens)
assay-text: MDM2 binding screen: displacement of fluorescent p53 peptide probe FP53 (fluorescence polarization)
measurement-setup: Acid 25; replicate; crude macrocycle reactions
Numbered stars: 1 amine (or outer) side, 2 acyl side, 3 side chain; on linkers, the order of the positions; unused ones are H or OH. Bridge positions count the residues as written; N and C are the ends. Square brackets hold non-standard residues; d marks the D form. Peptide text beside a SMILES is read from it. * marks the point of attachment. Benzoyl(4-Cl) = O=C(c1ccc(Cl)cc1)*; Cysteamide = C(CS[*:3])N[*:1]; Api = NC1(C(=O)O)CCNCC1; Mpa = O=C(O)CCS
The answer should be a number; do not append a unit.

Worked set:
O=C1CCSSCCNC(=O)C2(CCN(C(=O)c3ccc(Cl)cc3)CC2)NC(=O)CCNC(=O)[C@H](Cc2c[nH]c3ccccc23)N1 = 0.0465
O=C1CCNC(=O)[C@H](Cc2c[nH]c3ccccc23)NC(=O)[C@H](CNC(=O)c2ccc(Cl)cc2)NC(=O)CCSSCCN1 = 0.20
O=C1NC2(CCN(C(=O)c3ccc(Cl)cc3)CC2)C(=O)NCCSSCCC(=O)N2CCC[C@H]2C(=O)N[C@H]1Cc1ccccc1 [X B1 F D6 Acid 25] ([Mpa]PF[Api](Benzoyl(4-Cl))-Cysteamide; disulfide 1-C) = 0.15
O=C1CCSSCCNC(=O)[C@H](Cc2c[nH]c3ccccc23)NC(=O)[C@H](CNC(=O)c2ccc(Cl)cc2)NC(=O)c2cccc(c2)CN1 = 0.30
O=C1CCSSCCNC(=O)C2CN(C(=O)c3ccc(Cl)cc3)CCN2C(=O)C(Cc2c[nH]c3ccccc23)NC(=O)CCN1 (stereo not shown) = 0.10
O=C1CCSSCCNC(=O)[C@H](Cc2c[nH]c3ccccc23)NC(=O)c2cccc(c2)CNC(=O)C2(CCN(C(=O)c3ccc(Cl)cc3)CC2)N1 = 0.22

Attention now turns to another entry.
For the molecule O=C1CCSSCCNC(=O)c2cccc(c2)CNC(=O)[C@H](CNC(=O)c2ccc(Cl)cc2)NC(=O)[C@H](Cc2ccccc2)N1 , give its reported fraction fluorescent probe displaced, Replicate. 0.07

---

assayed-system: MDM2 (Homo sapiens)
assay-text: MDM2 binding screen: displacement of fluorescent p53 peptide probe FP53 (fluorescence polarization)
measurement-setup: 10 µM macrocycle concentration; crude acylated macrocycle (scaffold Mpa-AA1-AA2-AA3 x carboxylic acid); p53-based fluorescent peptide, human MDM2
Numbered stars: 1 amine (or outer) side, 2 acyl side, 3 side chain; on linkers, the order of the positions; unused ones are H or OH. Bridge positions count the residues as written; N and C are the ends. Square brackets hold non-standard residues; d marks the D form. Peptide text beside a SMILES is read from it. * marks the point of attachment. ξ: configuration not given here. ξNaproxenoyl = COc1ccc2cc(C(C)C(=O)*)ccc2c1; 2Thenoyl(5-Cl) = O=C(c1ccc(Cl)s1)*; Cysteamide = C(CS[*:3])N[*:1]; Dap = NC[CH](N)C(=O)O; Mpa = O=C(O)CCS
readout-kind: fraction fluorescent probe displaced
The answer should be a number; do not append a unit.

O=C(NC[C@@H]1NC(=O)[C@@H]2CCCN2C(=O)CCSSCCNC(=O)[C@H](Cc2ccccc2)NC1=O)c1ccc(Cl)s1 [X-B1-D3-F + A14] ([Mpa]P[Dap](2Thenoyl(5-Cl))F-Cysteamide; disulfide 1-C) = 0.08192

Attention now turns to another entry.
For the compound COc1ccc2cc(C(C)C(=O)NCC3NC(=O)C4CCCN4C(=O)CCSSCCNC(=O)C(Cc4c[nH]c5ccccc45)NC3=O)ccc2c1 (centres unmarked) [X-B1-D3-W + A97] ([Mpa]P[Dap](ξNaproxenoyl)W-Cysteamide; disulfide 1-C; configuration not given here) , give its reported fraction fluorescent probe displaced. 0.005277

---

assayed-system: thrombin (Homo sapiens, UniProt P00734)
Construct: consists of two polypeptide chains of 36 (light chain) and 259 amino acid
assay-text: Thrombin inhibition screen of crude macrocycle reactions (residual thrombin activity, fluorogenic substrate Z-Gly-Gly-Arg-AMC)
Type: biochemical
measurement-setup: 10 µM macrocycle concentration; crude reactions, Library 1a-l; scaffold AA1-AA2-AA3 combined with 1-16 or '-'
Procedure: As a proof-of-concept, we screened the macrocycle library for inhibitors against thrombin, which is the central blood coagulation protease and an important therapeutic target. We conducted the screen for thrombin-inhibiting macrocycles in 384-well reaction plates. Briefly, each well contained a unique macrocycle (10 μM), 5 μL of thrombin (2 nM final conc.), and subsequently, 5 µL of a fluorogenic substrate to measure the residual thrombin activity and the extent of protease inhibition. […]
Numbered stars: 1 amine (or outer) side, 2 acyl side, 3 side chain; on linkers, the order of the positions; unused ones are H or OH. Bridge positions count the residues as written; N and C are the ends. Square brackets hold non-standard residues; d marks the D form. Peptide text beside a SMILES is read from it. * marks the point of attachment. Isoorotoyl = O=C(c1c[nH]c(=O)[nH]c1=O)*; Cysteamide = C(CS[*:3])N[*:1]; Isovaleryl = CC(C)CC(=O)*; Orn = NCCC[C@H](N)C(=O)O; Mpa = O=C(O)CCS
readout-kind: percent residual thrombin activity
Please append the unit to your numeric answer.

Worked set:
CC(C)CC(=O)NCCC[C@@H]1NC(=O)[C@H](CO)NC(=O)[C@@H]2CCCN2C(=O)CCSSCCNC1=O [B1-s-D2/8] ([Mpa]PS[Orn](Isovaleryl)-Cysteamide; disulfide 1-C) = 104.868%
O=C1CCSSCCNC(=O)[C@H](CCCCNC(=O)c2ccco2)NC(=O)c2cccc(c2)CNC(=O)[C@H](CO)N1 [S-B5-D1/16] = 112.778%
CC(C)CC(=O)NCCCC[C@@H]1NC(=O)CCSSCCNC(=O)[C@@H](Cc2ccc(O)cc2)NC(=O)[C@H]2CCCN(C2)C1=O [D1-B4-y/8] = 108.143%
Cc1nnsc1C(=O)NCCCC[C@@H]1NC(=O)CCSSCCNC(=O)[C@H](CO)NC(=O)c2ccc(cc2)CNC1=O [D1-B3-S/15] = 103.115%
CC(C)C[C@@H]1NC(=O)CCSSCCNC(=O)[C@H](CCCCNC(=O)c2cnccn2)NC(=O)C2(CC2)CNC1=O [L-B6-D1/2] = 107.636%
CC(C)CC(=O)NCCCC[C@@H]1NC(=O)[C@@H](Cc2c[nH]c3ccccc23)NC(=O)[C@H]2CCCN(C2)C(=O)CCSSCCNC1=O [B4-W-D1/8] = 98.2761%
CC(C)CC(=O)NCCCC[C@@H]1NC(=O)[C@@H]2CCCN2C(=O)[C@@H](C)NC(=O)CCSSCCNC1=O [a-B1-D1/8] ([Mpa][dA]PK(Isovaleryl)-Cysteamide; disulfide 1-C) = 110.343%
O=C1CCSSCCNC(=O)[C@H](Cc2ccc(O)cc2)NC(=O)[C@H](CCCNC(=O)Cc2c[nH]c3ccccc23)NC(=O)C2(CC2)CN1 [B6-D2-Y/12] = 103.867%
NC(=O)CC[C@@H]1NC(=O)[C@H](CCCCNC(=O)c2c[nH]c(=O)[nH]c2=O)NC(=O)CCSSCCNC(=O)[C@@H]2CCCN2C1=O [D1-Q-B1/11] ([Mpa]K(Isoorotoyl)QP-Cysteamide; disulfide 1-C) = 109.119%
O=C1CCSSCCNC(=O)[C@H](CCCCNC(=O)COc2ccccc2)NC(=O)[C@H](Cc2ccc(O)cc2)NC(=O)C2(CC2)CN1 [B6-Y-D1/13] = 106.992%

For the molecule CC[C@H](C)[C@@H]1NC(=O)[C@H](CCCNC(=O)c2ccc(Cl)s2)NC(=O)CCSSCCNC(=O)CCNC1=O [D2-I-B2/14] , give its reported percent residual thrombin activity. 94.0704%

For the molecule CC[C@H](C)[C@@H]1NC(=O)[C@H](CCCNC(=O)c2cnccn2)NC(=O)CCSSCCNC(=O)CCNC1=O [D2-I-B2/2] , give its reported percent residual thrombin activity. 113.295%
